Test system: HeLa
procedure-text: Antiproliferative activity against human HeLa cells after 48 hrs by MTT assay
Assay type: functional, cell-based
readout: IC50 (µM)
Give bare numbers, in µM.

stdin: Report IC50 for `Cc1nc2ccccc2n1CC(=O)NN` please.
stdout: 5.34
